- procedure.summary: CHI lipophilicity by gradient reversed-phase HPLC (Gemini NX-C-18)
- experimental.context: Gemini NX-C-18 reversed-phase HPLC column, pH 7.4
Could you please report measured chromatographic logD for the items listed next?
Numbers only.

Use these answered entries as a reference point.
COc1ccc2c(c1)c(CC(=O)O)c(C)n2C(=O)c1ccc(Cl)cc1    1.47
CN(C)CCCN1c2ccccc2Sc2ccc(Cl)cc21    -0.58
Clc1ccc(COC(Cn2ccnc2)c2ccc(Cl)cc2Cl)c(Cl)c1 (centres unmarked)    4.64

# map each compound to its chromatographic logD
1. COc1ccc(CCN2CCC(Nc3nc4ccccc4n3Cc3ccc(F)cc3)CC2)cc1
2. CNCCCC1c2ccccc2C=Cc2ccccc21
3. CCn1cc(C(=O)O)c(=O)c2cc(F)c(N3CCNC(C)C3)c(F)c21 (centres unmarked)
4. Nc1nnc(-c2cccc(Cl)c2Cl)c(N)n1

Result:
1: 2.68; 2: 1.72; 3: -0.14; 4: 0.86

# map each compound to its chromatographic logD
1. OC(c1cc(C(F)(F)F)nc2c(C(F)(F)F)cccc12)C1CCCCN1 (centres unmarked)
2. OCCOCCN1CCN(C2=Nc3ccccc3Sc3ccccc32)CC1
3. CCN(CC)CCNC(=O)c1ccc(N)cc1 [Procainamide]

Result:
[2.18, 2.55, -0.59]

# map each compound to its chromatographic logD
1. CCCCN1CCCCC1C(=O)Nc1c(C)cccc1C (centres unmarked)
2. O=c1[nH]c2ccccc2n1C1CCN(CCCC(c2ccc(F)cc2)c2ccc(F)cc2)CC1 [Pimozide]
3. O=C(NCC1CCCCN1)c1cc(OCC(F)(F)F)ccc1OCC(F)(F)F (centres unmarked) [Flecainide]
4. CN1C2CCCC1CC(NC(=O)c1nn(C)c3ccccc13)C2 (centres unmarked)
5. O=c1[nH]c2ccccc2n1CCCN1CCC(n2c(=O)[nH]c3cc(Cl)ccc32)CC1
6. O=C1NC(=O)C(c2ccccc2)(c2ccccc2)N1
7. COc1ccc([C@@H]2Sc3ccccc3N(CCN(C)C)C(=O)[C@@H]2OC(C)=O)cc1
8. COc1ccc(CN(CCN(C)C)c2ccccn2)cc1

Result:
1. 3.06
2. 3.03
3. 1.68
4. 0.79
5. 1.37
6. 1.73
7. 2.76
8. 1.72

# map each compound to its chromatographic logD
1. CC(C)(C)NC(=O)[C@@H]1C[C@@H]2CCCC[C@@H]2CN1C[C@@H](O)[C@H](Cc1ccccc1)NC(=O)[C@H](CC(N)=O)NC(=O)c1ccc2ccccc2n1
2. CC[C@H](C)C(=O)O[C@H]1C[C@@H](C)C=C2C=C[C@H](C)[C@H](CC[C@@H]3C[C@@H](O)CC(=O)O3)[C@H]21

Result:
1: 3.31; 2: 4.09

* * *

- procedure.summary: Phospholipid binding at pH 7.4 on IAM PC.DD2 HPLC column
- Format: physicochemical
- experimental.context: pH 7.4, derived from CHI IAM by equation 1
value.type: log k IAM
Give bare numbers.

CCCCC1=NC2(CCCC2)C(=O)N1Cc1ccc(-c2ccccc2-c2nnn[nH]2)cc1 [Irbesartan]    1.62
O=C(O)COCCN1CCN(C(c2ccccc2)c2ccc(Cl)cc2)CC1 (stereo not shown) [Cetirizine]    2.29
COCCc1ccc(OCC(O)CNC(C)C)cc1 (stereo not shown) [Metoprolol]    2.05
C=C[C@H]1C[N@@]2CC[C@H]1C[C@@H]2[C@@H](O)c1ccnc2ccc(OC)cc12 [Quinidine]    2.71
CN1CCC[C@@H]1CCO[C@](C)(c1ccccc1)c1ccc(Cl)cc1 [Clemastine]    3.19

# map each compound to its log k IAM
1. C[C@H]1COc2c(N3CCN(C)CC3)c(F)cc3c(=O)c(C(=O)O)cn1c23 [Levofloxacin]
2. OCCN1CCN(CCCN2c3ccccc3Sc3ccc(Cl)cc32)CC1 [Perphenazine]
3. CN1CCN(CCCN2c3ccccc3Sc3ccc(C(F)(F)F)cc32)CC1 [Trifluoperazine]
4. CC(C)(C)NC(=O)[C@@H]1C[C@@H]2CCCC[C@@H]2CN1C[C@@H](O)[C@H](Cc1ccccc1)NC(=O)[C@H](CC(N)=O)NC(=O)c1ccc2ccccc2n1 [Saquinavir]
5. CC(C)COCC(CN(Cc1ccccc1)c1ccccc1)N1CCCC1 (stereo not shown) [Bepridil]
6. CCOC(=O)N1CCC(=C2c3ccc(Cl)cc3CCc3cccnc32)CC1 [Loratadine]
7. CCCCN1CCCCC1C(=O)Nc1c(C)cccc1C (stereo not shown) [Bupivacaine]

Result:
1.73
2.61
3.55
2.36
3.08
2.46
2.34

log k IAM measured on Cc1nc2n(c(=O)c1CCN1CCC(c3noc4cc(F)ccc34)CC1)CCCC2 [Risperidone] = 2.09
